Below, each of the binders is paired with its reported Neut IC50 (µg/ml) subtype A value.
Biological target: RSV F protein of subtype A (strain A2) on recombinant mKate-RSV virus (Respiratory syncytial virus subtype A …, UniProt P03420 26-574)
Test: cell-based or functional assay
REPORTED METRIC: Neut IC50 (µg/ml) subtype A (µg/mL)

# BINDER, UNIT NAME, QUALIFIER SYMBOL, QUANTITATIVE RESULT
data = [
    ("ADI-18932 (antibody, V domains shown, full-length IgG from yeast) VH: QVQLQESGPGLVRPSQTLSLTCSASGAAINSGDYYWSWIRQAPGRGLEWIGSISNRGVTDYNPSLKSRVIISADTSKNQFSLRLTSVTATDTAVYYCARDLGTLAFDPYYYYGIDVWGQGTTVTVSS VL: DIRMTQSPATLSLSPGERATLSCRASQSVSRHLAWYQQKPGQAPRLLIYDASYRVTGVPDRFSGSGSGTDFTLTISSLESEDFAIYFCQQRSTWPTFGQGTKVEIK", "µg/mL", "=", 0.184),
    ("ADI-18913 (antibody, V domains shown, full-length IgG from yeast) VH: QVQLVQSGPEVKKPGESLTISCKGSGYDFSNNWIGWVRQMPGKGLEWMGIIYPGDSDTRYSPSFQGQVTLSVDKSISTAYLQWRSLKASDSGIYYCARQIGGLVCSSESCYFYGMDVWGQGTTVTVSS VL: DIQLTQSPSSLSASVGGRVTITCRASQSISNYLNWYQHKPGKAPELLIYGASSLQSGVPSRFSGSGSGTDFTLTISSLQPEDFATYYCQQSDTTPFTFGQGTKVDIK", "µg/mL", "<", 0.01),
]
